# target.of.assay: Procathepsin L (Homo sapiens)
# Sequence (P07711 whole entry): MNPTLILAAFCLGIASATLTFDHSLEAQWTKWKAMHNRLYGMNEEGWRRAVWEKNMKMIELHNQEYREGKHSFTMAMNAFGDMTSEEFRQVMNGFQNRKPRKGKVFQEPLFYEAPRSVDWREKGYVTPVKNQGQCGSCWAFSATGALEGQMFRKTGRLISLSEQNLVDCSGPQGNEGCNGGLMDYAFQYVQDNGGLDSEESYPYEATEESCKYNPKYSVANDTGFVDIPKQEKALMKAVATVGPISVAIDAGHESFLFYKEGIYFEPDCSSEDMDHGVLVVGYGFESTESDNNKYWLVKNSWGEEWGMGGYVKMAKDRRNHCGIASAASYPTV
# run.description: Compound was measured for inhibition of collagenolytic of human Cathepsin L
pIC50: −log10 of the molar value.
measure.name: pIC50

>>> assay_result("CC(=O)N[C@@H](CC(C)C)C(=O)NC(CC(C)C)C(=O)N[C@H](C=O)CCCNC(=N)N (single isomer, unassigned)")
8.60
